# EXPERIMENTAL_SYSTEM: Insulin
# Sequence (P01308 25-54, chain 1 of 2): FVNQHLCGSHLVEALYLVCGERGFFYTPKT
# Sequence (P01308 90-110, chain 2 of 2): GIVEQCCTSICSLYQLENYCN
# ASSAY_SUMMARY: polyreactivity ELISA on insulin coat, 100 nM
Some binders, each annotated with its measured Insulin polyreactivity score.
Note: the reply should be a number with no unit written.

MIAB145 (antibody, V domains shown, tested with human Fc; also called MIAB145-001) VH: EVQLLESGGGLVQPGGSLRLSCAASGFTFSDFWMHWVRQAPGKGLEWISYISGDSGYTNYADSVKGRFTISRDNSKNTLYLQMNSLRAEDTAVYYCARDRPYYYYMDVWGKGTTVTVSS VL: DIQMTQSPSSLSASVGDRVTITCRASQSISRSLAWYQQKPGKAPKLLIYAASSLQSGVPSRFSGSGSGTDFTLTISSLQPEDFATYYCQQYKSYPVTFGQGTKVEIK; 4.58
MIAB151 (antibody, V domains shown, tested with human Fc) VH: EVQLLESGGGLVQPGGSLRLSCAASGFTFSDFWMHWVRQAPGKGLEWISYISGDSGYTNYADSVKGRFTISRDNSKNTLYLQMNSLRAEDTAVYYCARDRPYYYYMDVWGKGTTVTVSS VL: DIQMTQSPSSLSASVGDRVTITCRASQSISRSLNWYQQKPGKAPKLLIYAASSLQSGVPSRFSGSGSGTDFTLTISSLQPEDFATYYCQQYKSYPVTFGQGTKVEIK; 3.63

Field Insulin polyreactivity score (entry MIAB153 (antibody, V domains shown, tested with human Fc) VH: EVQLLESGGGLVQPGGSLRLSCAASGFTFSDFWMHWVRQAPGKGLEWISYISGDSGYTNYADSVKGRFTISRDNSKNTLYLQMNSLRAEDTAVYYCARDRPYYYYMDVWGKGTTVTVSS VL: DIQMTQSPSSLSASVGDRVTITCRASQSVSSSLNWYQQKPGKAPKLLIYAASSLQSGVPSRFSGSGSGTDFTLTISSLQPEDFATYYCQQYKSYPVTFGQGTKVEIK ) reads 2.46
